molecular target: human CCR8 (human, UniProt P51685 1-355); assay: cell-based or functional assay
Sequence (P51685 whole entry): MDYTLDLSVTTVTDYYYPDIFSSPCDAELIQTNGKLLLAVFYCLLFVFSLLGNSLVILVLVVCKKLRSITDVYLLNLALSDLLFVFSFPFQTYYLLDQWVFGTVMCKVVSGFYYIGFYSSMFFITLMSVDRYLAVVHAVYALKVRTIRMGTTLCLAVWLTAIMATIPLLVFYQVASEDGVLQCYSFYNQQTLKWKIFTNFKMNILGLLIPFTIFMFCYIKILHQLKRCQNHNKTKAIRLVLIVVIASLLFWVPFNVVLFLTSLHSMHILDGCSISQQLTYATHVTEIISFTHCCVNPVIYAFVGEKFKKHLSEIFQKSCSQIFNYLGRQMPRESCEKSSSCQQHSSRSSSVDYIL
Quick reference: IC50, inhibition of CCL1 induced β-Arrestin recruitment of the listed items.
Express your answer in nM, writing the number without its unit.

Worked cases, answers included:
149F2C10 (antibody, V domains shown, purified murine hybridoma antibody) VH: EVQLVESGGGLVQPKGSLKLSCAASGFTFNTYAMNWVRQAPGKGLEWVARIRSKSNFYATYYADSVKDRFTISRDDSQDMLYLQMNILKTEDTAIYYCVRGRDYGSSYAMDYWGQGTSVTVSS VL: DIVMTQAAPSVPVTPGESVSISCRSSKSLLHSNGNTYLYWFLQRPGQSPQLLIYRMSNLASGVPDRFSGSGSGTAFTLRISRVEAEDVGVYYCMQHLEYPLTFGAGTKLELK : 0.61
164G10D6 (antibody, V domains shown, purified murine hybridoma antibody) VH: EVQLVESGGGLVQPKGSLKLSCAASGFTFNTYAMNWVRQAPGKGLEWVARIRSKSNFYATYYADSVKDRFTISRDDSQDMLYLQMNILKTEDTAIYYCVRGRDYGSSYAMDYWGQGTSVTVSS VL: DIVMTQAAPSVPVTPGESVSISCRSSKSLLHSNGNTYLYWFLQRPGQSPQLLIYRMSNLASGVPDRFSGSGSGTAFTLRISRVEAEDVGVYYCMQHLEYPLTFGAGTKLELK : 0.46
204A2G12 (antibody, V domains shown, purified murine hybridoma antibody) VH: DVQLQESGPGLVKPSQSLSLTCSVTGYSITSGYYWNWIRQFPGNKLEWMGYISYDGTNNYNPSLKNRISITRDTSKNQFFLKLTSVTTEDTATYYCARQVGLRRAWFAYWGQGTLVTVSA VL: DIQMTQSSSFLSVSLGGRVTITCKASDHINYWLAWYQQKPGNAPRLLISGATSLETGVPSRFSGSGSGKDYTLTITSLQNEDVATYYCHQYWSTPTFGSGTKLEIK : 1.7
160D1E3 (antibody, V domains shown, purified murine hybridoma antibody) VH: EVQLVESGGGLVQPKGSLKLSCAASGFTFNTYAMNWVRQAPGKGLEWVARIRSKSNYYATYYADSVKDRFTISRDDSQDMLYLQMNNLKTEDTAIYYCVRGRDYGSSYAMDYWGQGTSVTVSS VL: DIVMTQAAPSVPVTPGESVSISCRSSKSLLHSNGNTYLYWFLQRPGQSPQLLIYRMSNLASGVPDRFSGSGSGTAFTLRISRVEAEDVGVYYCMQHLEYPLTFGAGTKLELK : 1.04

Okay, now this binder:
Inquiry: Any idea what IC50, inhibition of CCL1 induced β-Arrestin recruitment was measured for 153D4G2 (antibody, V domains shown, purified murine hybridoma antibody) VH: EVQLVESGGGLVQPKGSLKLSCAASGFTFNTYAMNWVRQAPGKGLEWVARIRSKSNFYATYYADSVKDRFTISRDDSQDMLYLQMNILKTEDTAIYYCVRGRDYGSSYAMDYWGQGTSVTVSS VL: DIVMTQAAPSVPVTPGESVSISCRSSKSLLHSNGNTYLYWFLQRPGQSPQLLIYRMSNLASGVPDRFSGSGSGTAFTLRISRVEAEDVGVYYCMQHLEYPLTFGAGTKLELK ?
Reply text: 6.57
